# tested_system: HLA-A*03:01 (human)
# assay_text: UV peptide exchange; HLA class I ELISA
# condition_details: remark: other sources report otherwise
Kindly apply the following: Satisfied if exchange rate with Pos is less than 10%, Not satisfied in every other case.

IN: API: query returns whether the binder falls strictly under 10% in exchange rate with Pos. Query: QLIAMDSAI (here or on the partner: biotinylated heavy chain) [P22 9-mer … (SLC45A3-ELK4 fusion)]
OUT: Satisfied

IN: Subsequent entry: HVPKILSGK (here or on the partner: biotinylated heavy chain) [P58 9-mer … (AR Q903H)]
OUT: Not satisfied

IN: Subsequent entry: YLRRQKRLK (here or on the partner: biotinylated heavy chain) [P60 9-mer … (FOXA1.p.F266L)]
OUT: Not satisfied

IN: Subsequent entry: FLFLLLPLS (here or on the partner: biotinylated heavy chain) [P87 9-mer … (AR-Intron)]
OUT: Satisfied

IN: Subsequent entry: CPMSRLRLA (here or on the partner: biotinylated heavy chain) [P46 9-mer … (TP53 R213D frameshift)]
OUT: Not satisfied

IN: Subsequent entry: IPVLTRWPL (here or on the partner: biotinylated heavy chain) [P19 9-mer … (TMEM222-LOC644061 fusion)]
OUT: Satisfied
